Target: CYP3A4 (Homo sapiens)
Sequence (P08684 whole entry): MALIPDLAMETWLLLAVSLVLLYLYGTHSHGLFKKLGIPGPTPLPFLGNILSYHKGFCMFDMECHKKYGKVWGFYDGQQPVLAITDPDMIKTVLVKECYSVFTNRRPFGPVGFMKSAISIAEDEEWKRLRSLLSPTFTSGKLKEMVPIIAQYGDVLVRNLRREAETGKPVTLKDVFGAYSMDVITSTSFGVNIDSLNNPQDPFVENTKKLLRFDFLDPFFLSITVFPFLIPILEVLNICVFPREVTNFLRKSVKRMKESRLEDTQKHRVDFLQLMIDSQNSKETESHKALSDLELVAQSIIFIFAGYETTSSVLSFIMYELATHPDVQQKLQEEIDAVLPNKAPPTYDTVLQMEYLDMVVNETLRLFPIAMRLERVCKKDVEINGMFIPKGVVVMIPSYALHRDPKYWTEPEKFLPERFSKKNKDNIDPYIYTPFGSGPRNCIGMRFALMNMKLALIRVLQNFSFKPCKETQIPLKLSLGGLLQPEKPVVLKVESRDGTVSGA
Experiment: Ratio of IC50 for time dependent inhibition of CYP3A4 in human liver microsomes incubated for 30 mins in presence of NADPH to IC50 for time dependent inhibition of CYP3A4 in human liver microsomes incubated for 30 mins in absence of NADPH
Design: species or system Microsome
Conditions: read-out: Ratio IC50
Parameter Measured: IC50 shift at 0.5 h

Lookup result for `COC(=O)N[C@H](C(=O)N1CC2(CCCCC2)C[C@H]1C(=O)N[C@@H](CCC(C)(F)F)C(=O)C(=O)NC1CC1)C(C)(C)C` ; measured IC50 shift at 0.5 h: > 1.3

Lookup result for `COC(=O)N[C@H](C(=O)N1CC2(CCCCC2)C[C@H]1C(=O)N[C@@H](CCC(C)(F)F)C(=O)C(=O)NCc1ccccc1)C(C)(C)C` ; measured IC50 shift at 0.5 h: > 3.1

Lookup result for `COC(=O)N[C@H](C(=O)N1CC2(CCCCC2)C[C@H]1C(=O)N[C@@H](CCC(C)(F)F)C(=O)C(=O)NC1CCCCC1)C(C)(C)C` ; measured IC50 shift at 0.5 h: > 6

Lookup result for `COC(=O)N[C@H](C(=O)N1CC2(CCCCC2)C[C@H]1C(=O)N[C@@H](CCC(C)(F)F)C(=O)C(N)=O)C(C)(C)C` ; measured IC50 shift at 0.5 h: > 1

Lookup result for `CNC(=O)C(=O)[C@H](CCC(C)(F)F)NC(=O)[C@@H]1CC2(CCCCC2)CN1C(=O)[C@@H](NC(=O)OC)C(C)(C)C` ; measured IC50 shift at 0.5 h: > 1.6

Lookup result for `COC(=O)N[C@H](C(=O)N1CC2(CCCCC2)C[C@H]1C(=O)N[C@@H](CCC(C)(F)F)C(=O)C(=O)NCc1ccncc1)C(C)(C)C` ; measured IC50 shift at 0.5 h: ~1

====

Biological target: Cytochrome P450 2C19 (Homo sapiens, UniProt P33261)
Sequence (P33261 whole entry): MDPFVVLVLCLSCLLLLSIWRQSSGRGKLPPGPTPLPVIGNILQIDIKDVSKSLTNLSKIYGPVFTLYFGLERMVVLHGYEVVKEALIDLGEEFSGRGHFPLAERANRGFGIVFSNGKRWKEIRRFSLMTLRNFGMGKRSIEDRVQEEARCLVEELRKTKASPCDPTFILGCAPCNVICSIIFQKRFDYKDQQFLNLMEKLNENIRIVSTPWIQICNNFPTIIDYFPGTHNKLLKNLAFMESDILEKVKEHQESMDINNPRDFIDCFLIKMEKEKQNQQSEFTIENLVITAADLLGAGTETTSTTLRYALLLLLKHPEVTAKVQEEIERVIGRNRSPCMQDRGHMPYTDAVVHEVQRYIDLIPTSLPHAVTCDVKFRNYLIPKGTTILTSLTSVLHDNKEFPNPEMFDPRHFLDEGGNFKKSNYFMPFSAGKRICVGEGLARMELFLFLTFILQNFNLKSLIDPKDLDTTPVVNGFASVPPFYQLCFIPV
pIC50: −log10 of the molar value.
Parameter Measured: pIC50

Recorded pIC50 for `CNC(=O)C(=O)[C@H](CCC(C)(F)F)NC(=O)[C@@H]1[C@H]2CCC[C@H]2CN1C(=O)[C@@H](NC(=O)OC)C(C)(C)C` on Cytochrome P450 2C19 (Homo sapiens, UniProt P33261) was < 3.70

====

Target: Replicase polyprotein 1ab (Severe acute respiratory syndrome coronavirus 2, UniProt P0DTD1)
Assay: Inhibition of wild type recombinant SARS-CoV-2 3CLpro (1 to 306 residues) expressed in Escherichia coli (DE3) competent cells using CP488-ESATLQSGLRKAK-(CPQ2)-NH2 as substrate preincubated for 30 mins followed by substrate addition and measured after 4 hrs by FRET assay
Parameter IC50: see the listing below.
Only the number, expressed in nM, is required.

Below, 2 compounds whose answers are already recorded.
COC(=O)N[C@H](C(=O)N1C[C@@H]2CCC[C@@H]2[C@H]1C(=O)N[C@@H](CCC(C)(C)F)C(=O)C(=O)NC1CC1)C(C)(C)C	26
COC(=O)N[C@H](C(=O)N1CC2(CCCCC2)C[C@H]1C(=O)N[C@@H](CCC(C)(F)F)C(=O)C(=O)NC1CCCCC1)C(C)(C)C	77

Now take the following compound into account.
Lookup result for `COC(=O)N[C@H](C(=O)N1CC2(CCOCC2)C[C@H]1C(=O)N[C@@H](CCC(C)(F)F)C(=O)C(=O)NC1CC1)C(C)(C)C` ; measured IC50: 297

Data origin, for the record: ChEMBL document CHEMBL5528064
